This section presents substances with their documented pIC50 values.
TARGET_ENTITY: α6β1 integrin (Homo sapiens, UniProt P05556+P23229)
Construct: expressed in transfected cells; host or cells: α6K562 cells
Sequence (P23229 24-938 limits assumed): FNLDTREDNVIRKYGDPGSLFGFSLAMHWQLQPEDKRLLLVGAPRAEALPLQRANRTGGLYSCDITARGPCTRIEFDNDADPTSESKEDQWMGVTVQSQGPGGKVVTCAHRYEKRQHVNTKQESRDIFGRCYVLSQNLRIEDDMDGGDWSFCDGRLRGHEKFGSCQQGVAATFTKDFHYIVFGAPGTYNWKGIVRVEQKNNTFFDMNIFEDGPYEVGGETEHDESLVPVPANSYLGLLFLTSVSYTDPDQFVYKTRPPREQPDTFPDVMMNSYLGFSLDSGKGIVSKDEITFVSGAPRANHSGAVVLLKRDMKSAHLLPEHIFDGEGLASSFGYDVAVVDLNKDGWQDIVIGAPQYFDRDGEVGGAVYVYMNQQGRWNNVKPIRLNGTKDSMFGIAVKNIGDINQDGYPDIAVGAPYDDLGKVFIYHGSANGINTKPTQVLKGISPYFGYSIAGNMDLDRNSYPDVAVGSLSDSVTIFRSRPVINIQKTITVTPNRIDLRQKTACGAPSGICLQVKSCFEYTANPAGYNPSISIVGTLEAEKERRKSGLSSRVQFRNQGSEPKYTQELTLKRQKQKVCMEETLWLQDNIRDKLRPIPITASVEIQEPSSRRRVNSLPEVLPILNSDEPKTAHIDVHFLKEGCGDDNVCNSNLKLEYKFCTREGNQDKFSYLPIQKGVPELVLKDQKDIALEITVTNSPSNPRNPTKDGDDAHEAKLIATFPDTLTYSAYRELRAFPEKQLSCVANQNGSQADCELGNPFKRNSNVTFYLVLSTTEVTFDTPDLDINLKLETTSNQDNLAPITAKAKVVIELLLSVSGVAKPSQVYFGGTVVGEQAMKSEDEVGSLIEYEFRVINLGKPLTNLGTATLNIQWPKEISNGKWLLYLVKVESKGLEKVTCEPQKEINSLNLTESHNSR
Sequence (P23229 942-1130 partner limits assumed): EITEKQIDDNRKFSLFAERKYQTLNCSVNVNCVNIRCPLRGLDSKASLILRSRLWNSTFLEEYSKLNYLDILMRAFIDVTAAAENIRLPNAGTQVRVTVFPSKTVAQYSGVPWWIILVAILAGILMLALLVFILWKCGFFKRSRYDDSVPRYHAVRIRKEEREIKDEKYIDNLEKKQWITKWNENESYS
Sequence (P05556 21-798): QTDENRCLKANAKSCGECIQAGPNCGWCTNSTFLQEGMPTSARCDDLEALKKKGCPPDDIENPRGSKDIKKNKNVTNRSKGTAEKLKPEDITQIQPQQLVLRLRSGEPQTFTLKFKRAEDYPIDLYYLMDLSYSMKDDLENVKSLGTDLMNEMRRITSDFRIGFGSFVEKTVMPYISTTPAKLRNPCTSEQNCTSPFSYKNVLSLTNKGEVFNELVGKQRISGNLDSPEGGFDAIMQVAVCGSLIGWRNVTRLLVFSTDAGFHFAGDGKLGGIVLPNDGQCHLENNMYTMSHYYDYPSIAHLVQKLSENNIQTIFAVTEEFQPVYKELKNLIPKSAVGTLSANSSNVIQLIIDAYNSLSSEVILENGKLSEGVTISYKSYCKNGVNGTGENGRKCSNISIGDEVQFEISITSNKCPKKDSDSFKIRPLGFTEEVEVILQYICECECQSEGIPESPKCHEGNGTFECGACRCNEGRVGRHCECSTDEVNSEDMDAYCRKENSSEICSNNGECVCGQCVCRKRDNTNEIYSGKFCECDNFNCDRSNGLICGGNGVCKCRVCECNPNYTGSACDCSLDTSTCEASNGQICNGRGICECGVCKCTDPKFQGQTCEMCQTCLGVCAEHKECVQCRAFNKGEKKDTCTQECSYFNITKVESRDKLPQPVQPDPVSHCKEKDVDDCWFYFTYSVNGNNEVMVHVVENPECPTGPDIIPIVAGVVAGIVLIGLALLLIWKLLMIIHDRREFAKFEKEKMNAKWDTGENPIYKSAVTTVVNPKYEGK
ASSAY_INFO: adhesion of α6K562 cells to laminin
Assay type: cell-based
COND: α6β1, LM
pIC50: −log10 of the molar value.

SUBSTANCE	TARGET_ENTITY	pIC50
Viperisrastatin (CTTGPCCRQCKLKPAGTTCWKTSRTSHYCTGKSCDCPVYQG)	α6β1 integrin (Homo sapiens, UniProt P05556+P23229)	< 5.00
Echistatin: short RGD-containing disintegrin (QCESGPCCRNCKFLKEGTICKRARGDDMDDYCNGKTCDCPRNPHKGPAT) [reference compound]	α6β1 integrin (Homo sapiens, UniProt P05556+P23229)	< 5.00
Eristostatin: short disintegrin compared with obtustatin (QEEPCATGPCCRRCKFKRAGKVCRVARGDWNDDYCTGKSCDCPKNPWNG) [reference compound]	α6β1 integrin (Homo sapiens, UniProt P05556+P23229)	< 5.00
Obtustatin (CTTGPCCRQCKLKPAGTTCWKTSLTSHYCTGKSCDCPLYPG)	α6β1 integrin (Homo sapiens, UniProt P05556+P23229)	< 5.00

###

Each entry below carries its recorded pIC50.
TARGET_ENTITY: α1β1 integrin (Homo sapiens, UniProt P05556+P56199)
Construct: expressed in transfected cells; host or cells: α1K562 cells
Sequence (P56199 29-1179): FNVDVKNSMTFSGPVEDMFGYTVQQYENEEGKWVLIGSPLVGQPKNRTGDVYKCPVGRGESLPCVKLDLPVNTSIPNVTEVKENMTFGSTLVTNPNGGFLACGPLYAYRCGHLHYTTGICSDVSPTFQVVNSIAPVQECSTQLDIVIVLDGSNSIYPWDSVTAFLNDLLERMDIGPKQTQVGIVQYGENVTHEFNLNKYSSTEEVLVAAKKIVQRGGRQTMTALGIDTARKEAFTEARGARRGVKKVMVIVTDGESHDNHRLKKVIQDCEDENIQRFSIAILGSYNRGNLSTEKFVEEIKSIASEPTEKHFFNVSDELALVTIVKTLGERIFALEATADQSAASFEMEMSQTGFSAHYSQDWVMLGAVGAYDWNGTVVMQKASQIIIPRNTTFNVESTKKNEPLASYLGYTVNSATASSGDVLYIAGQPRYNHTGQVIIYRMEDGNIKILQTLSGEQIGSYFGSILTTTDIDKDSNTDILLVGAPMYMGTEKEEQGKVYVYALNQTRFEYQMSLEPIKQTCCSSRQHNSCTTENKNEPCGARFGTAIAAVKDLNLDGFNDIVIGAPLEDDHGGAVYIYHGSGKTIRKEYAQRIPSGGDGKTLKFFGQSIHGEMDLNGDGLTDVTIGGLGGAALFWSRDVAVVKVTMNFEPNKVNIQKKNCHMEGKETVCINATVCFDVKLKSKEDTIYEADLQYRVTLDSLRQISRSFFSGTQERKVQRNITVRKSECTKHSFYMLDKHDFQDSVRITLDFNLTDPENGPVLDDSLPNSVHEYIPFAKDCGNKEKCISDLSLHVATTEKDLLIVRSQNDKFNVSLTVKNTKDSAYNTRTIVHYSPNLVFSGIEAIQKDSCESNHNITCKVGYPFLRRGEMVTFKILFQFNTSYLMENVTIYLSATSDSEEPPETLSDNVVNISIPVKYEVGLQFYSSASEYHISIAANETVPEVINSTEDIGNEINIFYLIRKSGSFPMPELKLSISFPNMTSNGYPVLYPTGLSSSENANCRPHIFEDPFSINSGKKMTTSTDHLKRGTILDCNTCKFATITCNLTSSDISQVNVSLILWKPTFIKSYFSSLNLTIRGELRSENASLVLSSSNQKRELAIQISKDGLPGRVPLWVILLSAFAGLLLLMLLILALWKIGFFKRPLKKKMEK
Sequence (P05556 21-798): as the sequence (P05556 21-798) above
ASSAY_INFO: adhesion of α1K562 cells to collagen I
Type: cell-based
COND: α1β1, Coll I
pIC50: −log10 of the molar value.
MEASUREMENT_NAME: pIC50

SUBSTANCE	TARGET_ENTITY	INEQUALITY_SYMBOL	MEASURED_VALUE
Viperisrastatin (CTTGPCCRQCKLKPAGTTCWKTSRTSHYCTGKSCDCPVYQG)	α1β1 integrin (Homo sapiens, UniProt P05556+P56199)	=	10.70
Obtustatin (CTTGPCCRQCKLKPAGTTCWKTSLTSHYCTGKSCDCPLYPG)	α1β1 integrin (Homo sapiens, UniProt P05556+P56199)	=	9.30
Eristostatin: short disintegrin compared with obtustatin (QEEPCATGPCCRRCKFKRAGKVCRVARGDWNDDYCTGKSCDCPKNPWNG) [reference compound]	α1β1 integrin (Homo sapiens, UniProt P05556+P56199)	<	5.00
Echistatin: short RGD-containing disintegrin (QCESGPCCRNCKFLKEGTICKRARGDDMDDYCNGKTCDCPRNPHKGPAT) [reference compound]	α1β1 integrin (Homo sapiens, UniProt P05556+P56199)	<	5.00

###

TARGET_ENTITY: α1β1 integrin (Mus musculus, UniProt P09055+Q3V3R4)
Construct: endogenous in cells; host or cells: B16F10 cells
Sequence (Q3V3R4 29-1179): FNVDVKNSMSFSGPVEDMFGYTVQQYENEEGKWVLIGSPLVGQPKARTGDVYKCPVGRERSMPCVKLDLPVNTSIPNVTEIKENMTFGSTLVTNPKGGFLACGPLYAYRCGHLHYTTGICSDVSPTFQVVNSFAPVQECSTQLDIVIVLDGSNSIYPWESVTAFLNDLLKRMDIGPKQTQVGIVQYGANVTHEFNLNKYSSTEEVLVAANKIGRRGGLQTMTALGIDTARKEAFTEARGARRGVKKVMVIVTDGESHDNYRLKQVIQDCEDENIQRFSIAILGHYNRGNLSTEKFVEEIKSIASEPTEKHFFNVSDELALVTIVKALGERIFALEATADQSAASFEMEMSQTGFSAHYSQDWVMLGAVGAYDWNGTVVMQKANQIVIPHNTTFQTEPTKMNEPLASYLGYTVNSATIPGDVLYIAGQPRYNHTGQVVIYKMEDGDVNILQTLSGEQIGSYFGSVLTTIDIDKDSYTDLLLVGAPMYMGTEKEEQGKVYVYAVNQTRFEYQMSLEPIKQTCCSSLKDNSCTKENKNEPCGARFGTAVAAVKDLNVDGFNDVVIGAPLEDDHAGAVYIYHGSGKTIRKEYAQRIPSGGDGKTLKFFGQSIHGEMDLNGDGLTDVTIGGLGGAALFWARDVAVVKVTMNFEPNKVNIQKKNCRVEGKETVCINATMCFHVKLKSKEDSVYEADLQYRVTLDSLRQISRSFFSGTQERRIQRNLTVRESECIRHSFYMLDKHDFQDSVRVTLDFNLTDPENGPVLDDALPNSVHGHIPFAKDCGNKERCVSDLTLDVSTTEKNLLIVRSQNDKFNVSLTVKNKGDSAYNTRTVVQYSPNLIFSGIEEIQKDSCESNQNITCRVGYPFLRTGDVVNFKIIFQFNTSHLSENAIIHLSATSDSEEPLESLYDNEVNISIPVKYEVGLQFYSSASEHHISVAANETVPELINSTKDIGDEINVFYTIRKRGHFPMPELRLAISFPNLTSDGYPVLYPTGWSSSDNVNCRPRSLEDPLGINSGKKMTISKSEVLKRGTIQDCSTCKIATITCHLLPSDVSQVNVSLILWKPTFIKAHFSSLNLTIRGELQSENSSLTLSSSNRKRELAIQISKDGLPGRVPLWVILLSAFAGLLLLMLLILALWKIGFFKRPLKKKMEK
Sequence (P09055 21-798): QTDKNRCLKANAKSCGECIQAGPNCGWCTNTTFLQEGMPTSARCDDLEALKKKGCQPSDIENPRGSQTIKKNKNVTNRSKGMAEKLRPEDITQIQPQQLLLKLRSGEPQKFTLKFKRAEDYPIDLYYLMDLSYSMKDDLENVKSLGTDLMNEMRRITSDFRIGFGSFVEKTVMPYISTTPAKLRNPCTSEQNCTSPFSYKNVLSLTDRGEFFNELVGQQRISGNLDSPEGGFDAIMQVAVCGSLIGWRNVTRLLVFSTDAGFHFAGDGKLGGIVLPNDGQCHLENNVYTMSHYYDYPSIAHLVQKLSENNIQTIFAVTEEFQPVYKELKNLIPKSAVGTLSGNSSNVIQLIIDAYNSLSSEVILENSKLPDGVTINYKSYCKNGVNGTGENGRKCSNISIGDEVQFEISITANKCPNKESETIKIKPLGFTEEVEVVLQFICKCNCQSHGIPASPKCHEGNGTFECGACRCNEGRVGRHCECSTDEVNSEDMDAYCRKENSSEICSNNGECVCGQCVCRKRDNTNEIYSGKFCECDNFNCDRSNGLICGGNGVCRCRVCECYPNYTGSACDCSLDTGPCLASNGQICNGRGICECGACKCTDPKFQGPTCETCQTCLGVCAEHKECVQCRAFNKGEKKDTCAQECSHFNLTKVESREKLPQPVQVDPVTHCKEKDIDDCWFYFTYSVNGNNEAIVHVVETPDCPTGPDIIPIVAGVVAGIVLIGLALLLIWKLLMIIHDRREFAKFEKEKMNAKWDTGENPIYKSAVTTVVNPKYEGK
ASSAY_INFO: adhesion of B16F10 cells to collagen IV
Assay type: cell-based
COND: α1β1, Coll IV
pIC50: −log10 of the molar value.

SUBSTANCE	INEQUALITY_SYMBOL	pIC50
Obtustatin (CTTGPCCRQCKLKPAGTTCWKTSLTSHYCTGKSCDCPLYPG)	=	9.70
Viperisrastatin (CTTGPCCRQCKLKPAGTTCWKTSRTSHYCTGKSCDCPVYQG)	=	9.60
Echistatin: short RGD-containing disintegrin (QCESGPCCRNCKFLKEGTICKRARGDDMDDYCNGKTCDCPRNPHKGPAT) [reference compound]	<	5.00
Eristostatin: short disintegrin compared with obtustatin (QEEPCATGPCCRRCKFKRAGKVCRVARGDWNDDYCTGKSCDCPKNPWNG) [reference compound]	<	5.00
